biological target: human HSD17B13 (Homo sapiens, UniProt Q7Z5P4); test: Substrate screening of steroid and bioactive lipid libraries against purified recombinant HSD17B13 (NADH-linked luciferase assay); type: biochemical; conditions: Steroid Library, 50 μM steroid, 500 μM NAD+, 100 ng enzyme, 3 hours at 23° C.
Sequence (Q7Z5P4 20-300): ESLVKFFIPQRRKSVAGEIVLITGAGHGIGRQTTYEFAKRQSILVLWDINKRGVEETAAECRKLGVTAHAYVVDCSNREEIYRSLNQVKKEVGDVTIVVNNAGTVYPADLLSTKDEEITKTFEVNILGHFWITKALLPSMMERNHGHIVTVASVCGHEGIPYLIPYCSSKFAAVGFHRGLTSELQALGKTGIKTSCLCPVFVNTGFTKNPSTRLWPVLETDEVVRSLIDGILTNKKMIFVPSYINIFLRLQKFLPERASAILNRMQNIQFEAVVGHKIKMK
Outcome: YES for HSD17B13 Enzymatic Activity Relative Light Units of at least 200000 RLU; NO for anything lower.

C[C@]12CCC(=O)C=C1CC[C@@H]1[C@@H]2CC[C@]2(C)C(=O)CC[C@@H]12 [Androstenedione]; NO
C[C@]12CC[C@H]3[C@@H](CCC4=CC(=O)CC[C@@]43C)[C@@H]1CC[C@@H]2O [Testosterone]; YES
CCCCCCCC/C=C\CCCCCCCC(=O)O [Oleic Acid]; NO
C=CCc1ccc(O)c(-c2ccc(O)c(CC=C)c2)c1 [Honokiol]; NO
CCC(=O)O[C@H]1CC[C@H]2[C@@H]3CC[C@H]4CC(=O)[C@H](C)C[C@]4(C)[C@H]3CC[C@]12C [Dromostanolone proprionate]; YES
CC(=O)S[C@@H]1CC2=CC(=O)CC[C@]2(C)[C@H]2CC[C@@]3(C)[C@@H](CC[C@@]34CCC(=O)O4)[C@H]12 [Spironolactone]; NO
C[C@]12CCC(=O)C[C@@H]1CC[C@@H]1[C@@H]2CC[C@]2(C)[C@@H](O)CC[C@@H]12 [DHT, dihydroxy testosterone (DHT)]; YES
CC[C@H](CC[C@@H](C)[C@H]1CC[C@H]2[C@@H]3CC=C4C[C@@H](O)CC[C@]4(C)[C@H]3CC[C@]12C)C(C)C [Beta-sitosterol]; NO
CC[C@H]1[C@@H](O)[C@@H]2[C@H](CC[C@]3(C)[C@@H]([C@H](C)CCC(=O)O)CC[C@@H]23)[C@@]2(C)CC[C@@H](O)C[C@@H]12 [6-ethylchenodeoxycholic acid]; NO
C[C@]12CC[C@@H](O)C[C@@H]1CC[C@@H]1[C@@H]2[C@@H](O)C[C@@]2(C)[C@H]1CC[C@]2(O)C(=O)CO [5alpha-Tetrahydrocortisol]; YES
C[C@]12CC[C@H]3[C@@H](CC[C@@]45O[C@@H]4C(O)=C(C#N)C[C@]35C)[C@@H]1CC[C@@H]2O [Trilostane]; YES
C[C@]12CC[C@H](O)C[C@@H]1CC[C@@H]1[C@@H]2CC[C@]2(C)C(=O)CC[C@@H]12 [Epiandrosterone]; NO
C[C@]12CC[C@H](O)C[C@@H]1CC[C@@H]1[C@@H]2CC[C@]2(C)[C@@H](O)CC[C@@H]12 [5alpha-androstane-3beta,17beta-diol]; YES
CC(=O)[C@H]1CC[C@H]2[C@@H]3CCC4=CC(=O)CC[C@]4(C)[C@H]3CC[C@]12C [Progesterone]; NO
C[C@]12C[C@H]3S[C@H]3C[C@@H]1CC[C@@H]1[C@@H]2CC[C@@]2(C)[C@H]1CC[C@@]2(C)O; NO
CC(=O)OCC(=O)[C@H]1CC[C@H]2[C@@H]3CCC4=CC(=O)CC[C@]4(C)[C@H]3[C@@H](O)C[C@]12C [Corticosterone 21-acetate]; NO
C[C@]12CCC(=O)C=C1CC[C@@H]1[C@@H]2[C@@H](O)C[C@@]2(C)[C@H]1CC[C@]2(O)C(=O)CO [Cortisol]; NO
O=c1cc(-c2ccc(O)cc2)oc2cc(O)cc(O)c12 [Apigenin]; NO
C[C@]12C[C@H](O)[C@H]3[C@@H](CCC4=CC(=O)CC[C@@]43C)[C@@H]1CC[C@@H]2C(=O)CO [Corticosterone]; YES
C[C@]12CC[C@@H](O)C[C@H]1CC[C@@H]1[C@@H]2C(=O)C[C@@]2(C)[C@H]1CC[C@]2(O)C(=O)CO [TetrahydroCortisone]; YES
C[C@]12CC[C@H]3C(=CCc4cc(O)ccc43)[C@@H]1CCC2=O [Equilin]; NO
CC1(C)[C@@H](O)CC[C@]2(C)[C@H]3C(=O)C=C4[C@@H]5C[C@@](C)(C(=O)O)CC[C@]5(C)CC[C@@]4(C)[C@]3(C)CC[C@@H]12 [18beta-Glycyrrhetinic acid]; NO

* * *

target: human HSD17B13 (Homo sapiens); test: Substrate screening of steroid and bioactive lipid libraries against purified recombinant HSD17B13 (NADH-linked luciferase assay); type: biochemical; conditions: Bioactive Lipid Library, 5 μM bioactive lipid (Estradiol Control 50 μM), 500 μM NAD+, 100 ng enzyme, 3 hours at 23° C.
Structures can show the parent of a compound that is named as a salt.
Label NOT MET if HSD17B13 Enzymatic Activity Relative Light Units falls below 300000 RLU; label MET in every other case.

CCCCC[C@H](O)/C=C/[C@@H]1[C@@H](C/C=C\CCCC(=O)NCCCCCNC(=O)CCCC[C@H]2SC[C@@H]3NC(=O)N[C@@H]32)[C@@H](O)C[C@H]1O; MET
CCCCC/C=C\C/C=C\C[C@H](O)/C=C/C=C\CCCC(=O)O [9(S)-HETE]; MET
CC/C=C\C/C=C\C=C\[C@@H](O)C/C=C\C/C=C\CCCC(=O)O [11(S)-HEPE]; MET
CC1(C)[C@@H]2C[C@H](NS(=O)(=O)c3ccc(I)cc3)[C@@H](C/C=C\CCCC(=O)O)[C@H]1C2; NOT MET
CCCCC/C=C\C=C\[C@@H](O)CCCCCCCCCC(=O)O [11(S)-HEDE]; MET
CCCCC/C=C\C=C\[C@@H](O)CCCCCCCC(=O)O [9(S)-HODE]; MET
CCCCC[C@H](O)/C=C/[C@@H]1[C@@H](C/C=C\CCCC(=O)O)[C@@H]2C[C@H]1OO2; NOT MET
CCCCC[C@H](O)/C=C/[C@H]1[C@H](O)CC(=O)[C@@H]1C/C=C\CCCC(=O)Oc1ccc(NC(=O)c2ccccc2)cc1 [Prostaglandin E2 p-benzamidophenyl ester]; MET
CC/C=C/C[C@H](O)/C=C/[C@@H]1[C@@H](C/C=C\CCCC(=O)O)[C@@H](O)C[C@H]1O (relative stereo) [17-trans Prostaglandin F3α]; MET
CC/C=C\C[C@H](O)/C=C/[C@H]1[C@H](O)CC(=O)[C@@H]1C/C=C\CCCC(=O)O; MET
CC/C=C\C[C@H](O)/C=C/C=C\C/C=C\C/C=C\CCCC(=O)O [15(S)-HEPE]; MET
CCCCC/C=C\C/C=C\C/C=C\C=C\C1CCCC(=O)O1 (racemic) [(±)5-HETE lactone]; MET
CCCCC[C@H]1O[C@H]1C/C=C\C/C=C\C/C=C\CCCC(=O)NCCO [14(15)-EET Ethanolamide]; MET
CC(C)OC(=O)CCC/C=C\C[C@@H]1[C@@H](/C=C/[C@H](O)COc2cccc(C(F)(F)F)c2)[C@H](O)C[C@@H]1O [15(S)-Fluprostenol isopropyl ester]; MET
CCCCC[C@H](O)/C=C/C=C\C/C=C\C=C\[C@@H](O)CCCC(=O)O [5(S),15(S)-DiHETE]; MET
CCCCC[C@@H](O)/C=C/C=C\CCCCCCCC(=O)O [13(R)-HODE]; MET
CCCCCC(=O)/C=C/C=C\C/C=C\C/C=C\CCCC(=O)O; MET
CCCCC[C@H](O)/C=C/[C@H]1C(=O)CC(=O)[C@@H]1CCCCCCC(=O)O; NOT MET
CCCCC/C=C\C/C=C\C/C=C\C=C\[C@@H](O)CCCC(=O)OC (racemic) [(±)5-HETE methyl ester]; MET
C[C@@H](O)CCC[C@@H](O)/C=C/[C@@H]1[C@@H](C/C=C\CCCC(=O)O)[C@@H](O)C[C@H]1O [15(R),19(R)-hydroxy Prostaglandin F2α]; MET
CCCCCC(O)C=CC1OC(=O)CC(O)C1CC=CCC(=O)O (stereo not drawn) [11-dehydro-2,3-dinor Thromboxane B2]; NOT MET
O=P(O)(O)O[C@@H]1C(O)[C@H](OP(=O)(O)O)[C@@H](O)C(O)[C@H]1O (stereo partly drawn) [(sodium salt)]; MET
CC/C=C\C[C@H]1C(=O)C=C[C@@H]1CCCCCCCC(=O)O [13-epi-12-oxo Phytodienoic Acid]; MET
O=P([O-])(O)O[C@@H]1[C@@H](O)[C@H](O)[C@H](O)[C@H](O)[C@H]1OP(=O)([O-])O.[Na+].[Na+]; NOT MET
CCCCC/C=C\C[C@H](O)/C=C/C=C/C=C\[C@@H](O)CCCC(=O)O [12-epi Leukotriene B4]; MET
CCCCCCCC/C(=C\CCCCCCCC(=O)O)[N+](=O)[O-] [10-Nitrooleate]; NOT MET
CCCCC/C=C\C\C=C/C=C/C=C/[C@@H](O)[C@@H](O)CCCC(=O)O [5(S),6(R)-DiHETE]; NOT MET
CCCCC[C@@H](/C=C/C=C\CCCCCCCC(=O)O)OO [13(S)-HpODE]; NOT MET
CCCCC[C@H](O)/C=C/[C@@H]1[C@H](C/C=C\CC(=O)O)[C@@H](O)C[C@H]1O; NOT MET
